Hi there, I'd appreciate the recorded pKi for every entry that follows.
Quick note: pKi means taking -log10 of the concentration in moles per liter.

Exercise: Provide pKi, tested on hCRTH2 (Homo sapiens (Human), UniProt Q9Y5Y4), for COc1ccccc1-n1c(CCCCC(=O)O)cc2cc(C(=O)N[C@H](C)c3ccc(F)cc3)ccc2c1=O (single isomer, unassigned) .
Sequence (Q9Y5Y4 whole entry): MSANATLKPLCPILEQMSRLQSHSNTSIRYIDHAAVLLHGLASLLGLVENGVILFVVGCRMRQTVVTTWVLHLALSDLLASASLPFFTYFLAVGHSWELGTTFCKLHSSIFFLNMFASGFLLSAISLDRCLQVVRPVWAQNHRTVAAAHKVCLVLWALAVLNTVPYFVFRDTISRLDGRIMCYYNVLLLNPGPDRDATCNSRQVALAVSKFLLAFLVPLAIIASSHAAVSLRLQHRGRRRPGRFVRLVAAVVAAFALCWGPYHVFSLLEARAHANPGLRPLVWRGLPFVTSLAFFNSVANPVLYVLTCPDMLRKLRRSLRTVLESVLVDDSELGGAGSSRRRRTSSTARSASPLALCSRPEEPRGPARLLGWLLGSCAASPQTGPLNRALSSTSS
Solution: 7.73

Exercise: Provide pKi, tested on hCRTH2 (Homo sapiens (Human), UniProt Q9Y5Y4), for `C[C@@H](NC(=O)c1ccc2c(=O)n(-c3ccc(F)cc3)c(CCCCC(=O)O)cc2c1)c1ccc(F)cc1` .
Solution: 8.29

Exercise: Provide pKi, tested on hCRTH2 (Homo sapiens (Human), UniProt Q9Y5Y4), for `C[C@@H]1CN(c2ccccc2)CCN1C(=O)c1ccc2c(=O)n(-c3ccc(F)cc3)c(CCCCC(=O)NS(=O)(=O)C3CC3)cc2c1` .
Solution: 7.43

Exercise: Provide pKi, tested on hCRTH2 (Homo sapiens (Human), UniProt Q9Y5Y4), for `C[C@@H]1CN(c2ccc(F)cc2)CCN1C(=O)c1ccc2c(=O)n(-c3ccc(F)cc3)c(CCCCC(=O)O)cc2c1` .
Solution: 7.65

Exercise: Provide pKi, tested on hCRTH2 (Homo sapiens (Human), UniProt Q9Y5Y4), for `O=C(O)CCCCc1cc2cc(-c3noc(-c4ccc(C(F)(F)F)cc4)n3)ccc2c(=O)n1-c1ccc(F)cc1` .
Solution: 7.83

Exercise: Provide pKi, tested on hCRTH2 (Homo sapiens (Human), UniProt Q9Y5Y4), for `COc1ccc(-n2c(CCCCC(=O)O)cc3cc(C(=O)N[C@H](C)c4ccc(F)cc4)ccc3c2=O)cc1` .
Solution: 8.09

Exercise: Provide pKi, tested on hCRTH2 (Homo sapiens (Human), UniProt Q9Y5Y4), for `C[C@@H]1CN(c2ccccc2)CCN1C(=O)c1ccc2c(=O)n(-c3ccc(F)cc3)c(CCCCC(=O)O)cc2c1` .
Solution: 7.87

Exercise: Provide pKi, tested on hCRTH2 (Homo sapiens (Human), UniProt Q9Y5Y4), for `C[C@@H](NC(=O)c1ccc2c(=O)n(-c3ccc(F)cc3)c(CCCCC(=O)NS(=O)(=O)C3CC3)cc2c1)c1ccc(F)cc1` .
Solution: 7.83

Exercise: Provide pKi, tested on hCRTH2 (Homo sapiens (Human), UniProt Q9Y5Y4), for `O=C(CCCCc1cc2cc(-c3noc(Cc4ccc(F)cc4)n3)ccc2c(=O)n1-c1ccc(F)cc1)NS(=O)(=O)C1CC1` .
Solution: 7.76

Exercise: Provide pKi, tested on hCRTH2 (Homo sapiens (Human), UniProt Q9Y5Y4), for `C[C@@H](NC(=O)c1ccc2c(=O)n(-c3ccc(F)cc3)c(CC(=O)O)cc2c1)c1ccc(F)cc1` .
Solution: 5.31

Exercise: Provide pKi, tested on hCRTH2 (Homo sapiens (Human), UniProt Q9Y5Y4), for `C[C@@H](NC(=O)c1ccc2c(=O)n(Cc3ccccc3)c(CCCCC(=O)O)cc2c1)c1ccc(F)cc1` .
Solution: 7.42

Exercise: Provide pKi, tested on hCRTH2 (Homo sapiens (Human), UniProt Q9Y5Y4), for `C[C@@H]1CN(c2ccc(F)cc2)CCN1C(=O)c1ccc2c(=O)n(-c3ccc(F)cc3)c(CCCCC(=O)NS(=O)(=O)C3CC3)cc2c1` .
Solution: 7.77
